system: barnyardgrass; experiment: Test B pre-/postemergence herbicide test; assay type: in vivo, Echinochloa crus-galli; settings: 125 g ai/ha; visual rating, scale 0 (no effect) to 100 (complete control); postemergence
PROPERTY LABEL: Barnyardgrass plant response rating
Answer with a bare number; do not write a unit.

Solved cases (2 shown):
- COMPOUND: "CCc1nn(C(C)(C)C)nc1C(=O)Nc1cc(C(=O)N(C)CC)ccc1F"
  TARGET SYSTEM: "barnyardgrass"
  PROPERTY LABEL: "Barnyardgrass plant response rating"
  OBSERVED VALUE: 0
- COMPOUND: "CCNC(=O)c1cccc(NC(=O)c2nn(C(C)(C)CC)nc2CC)c1"
  TARGET SYSTEM: "barnyardgrass"
  PROPERTY LABEL: "Barnyardgrass plant response rating"
  OBSERVED VALUE: 10

**Query** Lookup: Barnyardgrass plant response rating / barnyardgrass / CCC1=NN(C(C)(C)C)CC1C(=O)Nc1cc(C(=O)N(C)CC)ccc1F (racemic)
**Result** 10

* * *

tested on: Surinam grass; test: Test C pre-/postemergence herbicide test; format: in vivo, Urochloa decumbens; conditions: 62 g ai/ha; preemergence; scale 0 to 100
PROPERTY LABEL: Plant response rating, Surinam Grass
Form rule: numeric answer, no unit written next to it.

- COMPOUND: "CCNC(=O)c1cc(C)nc(NC(=O)c2cc(C(C)(C)C)nn2CC)c1 [Compound 149]"
  TARGET SYSTEM: "Surinam grass"
  Plant response rating, Surinam Grass: 0

**Query** # query: Plant response rating, Surinam Grass of entry CCC1=NN(C(C)(C)C)CC1C(=O)Nc1cc(C(=O)N2CC=CC2)ccc1F (racemic) [Compound 340]
**Result** 0

**Query** Same again, this time with C=CCNC(=O)c1cccc(NC(=O)c2sc(C(C)(C)C)nc2C)c1 [Compound 202]
**Result** 10

**Query** Now the compound CCC1=NN(C(C)(C)C)CC1C(=O)Nc1cc(C(=O)N2CCCC2)ccc1F (racemic) [Compound 341]
**Result** 60

**Query** Now give it for CCNC(=O)c1ccc(F)c(N(C(C)=O)C(=O)c2cc(C(C)(C)C)nn2CC)c1 [Compound 399] too.
**Result** 95

* * *

tested on: redroot pigweed; experiment: Test A pre-/postemergence herbicide test; format: in vivo, Amaranthus retroflexus; details: Postemergence, 500 g ai/ha; 0 to 100 scale, 0 no effect, 100 complete control
PROPERTY LABEL: Plant response rating, Pigweed
Respond with the number and no other words.

- COMPOUND STRING: "CCOC(=O)c1cccc(NC(=O)c2cc(C(C)(C)C)nn2CCF)c1"
  TARGET SYSTEM: "redroot pigweed"
  Plant response rating, Pigweed: 95

**Query** Sample "CCn1nc(C(C)(C)C)cc1C(=O)Nc1cccc2c1CNC2=O" — what was its Plant response rating, Pigweed?
**Result** 30

**Query** And then "CCn1nc(C(C)(C)C)cc1C(=O)Nc1cccc(C(=O)NOC)c1" , what is it?
**Result** 50

**Query** Same thing, different compound: "CCCCn1nc(C(C)(C)C)cc1C(=O)Nc1cccc(C(=O)N(CC)CC)c1"
**Result** 0

* * *

Test system: large crabgrass
Assay: Test B pre-/postemergence herbicide test
Type: in vivo, Digitaria sanguinalis
Details: 125 g ai/ha; 0 = no effect, 100 = complete control; preemergence
Procedure: […] At the same time, plants selected from these crop and weed species and also blackgrass (Alopecurus myosuroides Huds.), wheat (Triticum aestivum L.) and wild oat (Avena fatua L.) were treated with postemergence applications of test chemicals formulated in the same manner. […] Treated plants and controls were maintained in a greenhouse for 13 to 15 days, after which time all species were compared to controls and visually evaluated. […]
Returns: string. Value is Met if measured Crabgrass, Large plant response rating (0 to 100 scale) is below 40, and Not met if it is greater than or equal to it.

Example cases with answers are listed next.
- COMPOUND: "CCNC(=O)c1ccc(F)c(NC(=O)c2c(F)c(C(C)(C)C)nn2CC)c1 [Compound 275]"
  ASSIGNED LABEL: "Met"
- COMPOUND: "CCN(CC)C(=O)c1cccc(NC(=O)c2cn(C(C)(C)C)nc2C)c1 [Compound 184]"
  ASSIGNED LABEL: "Met"
- COMPOUND: "CCn1nc(C(C)(C)C)cc1C(=O)Nc1cc(C(=O)N2CCOCC2)ccc1F [Compound 243]"
  ASSIGNED LABEL: "Not met"
- COMPOUND: "CCn1nc(C(C)(C)C)cc1C(=O)Nc1nc(C(=O)N(C)C)ccc1F [Compound 277]"
  ASSIGNED LABEL: "Met"

**Query** A record lists CCn1nc(C(C)(C)C)cc1C(=O)Nc1cccc(OC(C)C)c1 [Compound 273] . Is its Crabgrass, Large plant response rating (0 to 100 scale) below 40?
**Result** Not met

**Query** Could you do the same for CCn1nc(C(C)(C)C)cc1C(=O)Nc1cc(C(N)=O)ccc1F [Compound 271] , please?
**Result** Met

**Query** Next compound up: CCn1nc(C(C)(C)C)cc1C(=O)Nc1cccc(OC(F)(F)F)c1 [Compound 272]
**Result** Not met
